PROTOCOL NOTES: Plasma protein binding assay, filtration method
Assay type: in vitro ADME
TEST CONTEXT: lithium-heparin plasma, mouse plasma, 37° C., one hour, read-out: Plasma protein binding (%) (±standard deviation) (converted)
For each entry below, report its fraction unbound at 1 h, 1 µM value.
Note: the reply should be a number with no unit written.

Value of measured fraction unbound at 1 h, 1 µM for the entry Cc1cc(OCc2c(-c3c(Cl)cccc3Cl)noc2C(C)C)cnc1Oc1ccc(C(=O)O)cc1 [Example 3] : 0.021

Recorded result, CC(C)c1onc(-c2c(Cl)cccc2Cl)c1COc1ccc(Oc2ccc(C(=O)O)cc2)cc1 [Compound A, reference compound] , fraction unbound at 1 h, 1 µM: 0.007

Values were extracted from patent US8193192B2.
